Cited source for all entries: patent US12600698B2

Listed here: molecules with reported IC50 for BTK (Homo sapiens, UniProt Q06187).

Take a look at these entries with their results.
CC#CC(=O)NC1CCC=C(c2c(F)cc(C(N)=O)c3[nH]c(C)c(Cl)c23)C1 (racemic) [1A(rac)] ... 1 to 10 nM
CC#CC(=O)N[C@H]1CCC=C(c2c(F)cc(C(N)=O)c3[nH]c(C)c(Cl)c23)C1 [1A(S)] ... < 1 nM
CC#CC(=O)N[C@H]1CCC[C@H](c2c(F)cc(C(N)=O)c3[nH]c(C)c(C)c23)C1 ... 1 to 10 nM

Input line: Would you mind telling me what IC50 value was observed for `CC#CC(=O)N[C@H]1CCC[C@H](c2c(F)c(F)c(C(N)=O)c3[nH]c(C)c(F)c23)C1` ?
Output line: > 10 nM

Input line: Check `CC#CC(=O)N[C@@H]1CCC[C@@H](c2c(F)c(F)c(C(N)=O)c3[nH]c(C)c(C)c23)C1` too.
Output line: > 10 nM

Input line: Check `CC#CC(=O)N[C@@H]1CCC[C@@H](c2c(F)c(F)c(C(N)=O)c3[nH]c(C)c(C#N)c23)C1` too.
Output line: 1 to 10 nM

====

Listed here: molecules with reported IC50 for BTK (Homo sapiens).

CC#CC(=O)N[C@H]1CCC[C@H](c2c(F)cc(C(N)=O)c3[nH]c(C)c(Cl)c23)C1 (relative stereo) [Compound 6-(trans)] ... 1 to 10 nM
CC#CC(=O)N[C@@H]1CCC=C(c2c(F)c(F)c(C(N)=O)c3[nH]c(C)c(Cl)c23)C1 [2A(R)] ... 1 to 10 nM
CC#CC(=O)N[C@@H]1CCC[C@@H](c2c(F)c(F)c(C(N)=O)c3[nH]c(C)c(Cl)c23)C1 ... 1 to 10 nM
CC#CC(=O)N[C@H]1CCC[C@H](c2c(F)c(F)c(C(N)=O)c3[nH]c(C)c(C#N)c23)C1 ... > 10 nM
CC#CC(=O)N[C@H]1CCC=C(c2c(F)c(F)c(C(N)=O)c3[nH]c(C)c(Cl)c23)C1 [2A(S)] ... < 1 nM
CC#CC(=O)N[C@@H]1C=C(c2c(F)cc(C(N)=O)c3[nH]c(C)c(C)c23)CCC1 [3B(S)] ... 1 to 10 nM

Input line: Would you mind telling me what IC50 value was observed for CC#CC(=O)N[C@H]1CCC=C(c2c(F)cc(C(N)=O)c3[nH]c(C)c(C)c23)C1 [3A(S)] ?
Output line: < 1 nM

Input line: Check CC#CC(=O)N(C)[C@H]1CCC=C(c2c(F)cc(C(N)=O)c3[nH]c(C)c(C)c23)C1 [4A(S)] too.
Output line: 1 to 10 nM

Input line: Check `CC#CC(=O)N[C@@H]1CCC[C@@H](c2c(F)cc(C(N)=O)c3[nH]c(C)c(Cl)c23)C1` too.
Output line: > 10 nM
